# tested.target: T1, mouse vascular endothelial growth factor receptor-2 Fc chimera (Flk-1-Fc) (mouse, UniProt P35918 20-762)
# T1 construct: Bought from R&D Systems; also called mouse VEGFR-2; not shown: Fc part of the purchased chimera, not specified
# T1 sequence (P35918 20-762, change not shown): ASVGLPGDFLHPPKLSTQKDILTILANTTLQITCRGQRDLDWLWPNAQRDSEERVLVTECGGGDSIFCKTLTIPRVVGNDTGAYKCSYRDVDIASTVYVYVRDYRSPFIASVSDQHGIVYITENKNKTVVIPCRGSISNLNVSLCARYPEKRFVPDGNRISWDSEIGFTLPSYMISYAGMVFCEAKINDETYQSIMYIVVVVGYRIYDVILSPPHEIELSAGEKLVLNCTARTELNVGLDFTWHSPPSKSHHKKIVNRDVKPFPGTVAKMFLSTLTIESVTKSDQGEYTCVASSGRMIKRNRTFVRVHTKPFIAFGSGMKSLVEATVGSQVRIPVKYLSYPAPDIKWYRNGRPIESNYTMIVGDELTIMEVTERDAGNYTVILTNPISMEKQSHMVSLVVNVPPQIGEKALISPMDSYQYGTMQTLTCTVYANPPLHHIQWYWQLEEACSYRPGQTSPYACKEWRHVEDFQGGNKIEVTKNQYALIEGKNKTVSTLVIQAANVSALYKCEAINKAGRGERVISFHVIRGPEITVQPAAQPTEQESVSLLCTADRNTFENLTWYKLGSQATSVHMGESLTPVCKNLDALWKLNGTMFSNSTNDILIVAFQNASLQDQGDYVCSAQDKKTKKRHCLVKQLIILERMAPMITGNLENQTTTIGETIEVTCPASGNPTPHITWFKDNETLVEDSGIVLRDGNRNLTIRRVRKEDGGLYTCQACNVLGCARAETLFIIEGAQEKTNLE
# measurement.notes: radioactive equilibrium binding assay, 1 nM Flk-1-Fc, % of input bound
# Experimental: To prepare ³⁵S-labeled binding proteins for analysis, mRNA was prepared as described above for RNA-protein fusion production but the linker ligation step was omitted. […] 50 μA of the reaction mixture and elution were dried onto a LumaPlate-96 (Packard) and the amount of ³⁵S on the plate was measured using a TopCount NXT instrument (Packard). […] Data was analyzed using the GraphPad Prizm software (GraphPad Software, Inc, San Diego, Calif.), fitted using a one site, non-linear binding equation.
quantity.measured: Binding to 1 nM Flk-1, % (%)
Field format: number, assumed %, no unit text.

{"binder": "EGE10 (designed binder, 10Fn3 clone, Del 1-8) EVVAATPTSLLISWRHPHFPTRYYRITYGETGGNSPVQEFTVPLQPPTATISGLKPGVDYTITGYAVTMGPNDRELLTPISINYRT", "data.value": 1}
{"binder": "A10 (designed binder, 10Fn3 clone, Del 1-8) EVVAATPTSLLISWRHPHFPTRYYRITYGETGGNSPVQEFTVPLQPPTATISGLKPGVDYTITGYAVTFGWNGRELLTPISINYRT", "data.value": 4}

Prompt: Need Binding to 1 nM Flk-1, %, item E8 (designed binder, 10Fn3 clone, Del 1-8) EVVAATPTSLLISWRHPHFPTRYYRITYGETGGNSPVQEFTVPLQPPTATISGLKPGVDYTITGYAVTEEWNGRVLMTPISINYRT
Completion: 10
